Attribution: BigSolDB 2.1

# appliedConditions: in acetonitrile, 323.15 K
measuredQuantity: solubility (mole fraction)
Could you keep your reply to the number by itself?

Incoming: Using the record for O=C1OC(=O)[C@H]2[C@@H]1[C@@H]1C=C[C@H]2O1 , state its measured solubility (mole fraction).
Outgoing: 0.109

###

# appliedConditions: in DMF, 278.15 K
measuredQuantity: solubility (mole fraction)

Incoming: Using the record for O=C1OC(=O)[C@H]2[C@@H]1[C@@H]1C=C[C@H]2O1 , state its measured solubility (mole fraction).
Outgoing: 0.106

###

# appliedConditions: in isopropyl acetate, 303.15 K
measuredQuantity: solubility (mole fraction)
Could you keep your reply to the number by itself?

Incoming: Using the record for O=C1OC(=O)[C@H]2[C@@H]1[C@@H]1C=C[C@H]2O1 , state its measured solubility (mole fraction).
Outgoing: 0.022
